measurement protocol: AUClast in mouse at 3 mg/kg, iv
Assay type: ADME, organism-based
Design: dose 3 mg/kg, time 0 - last, route intravenous
run conditions: in vivo
endpoint label: AUC(0-t) (µM·h)

CCC[C@H](C)Nc1ncc2c(-c3ccc(CN4C5CCC4CC5)cc3)cn([C@H]3CC[C@H](O)CC3)c2n1 : 0.28
CCC[C@H](C)Nc1ncc2c(-c3ccc(S(=O)(=O)N4CCN(C)CC4)cc3F)cn([C@H]3CC[C@H](O)CC3)c2n1 : 1.6

a: CCC[C@H](C)Nc1ncc2c(-c3ccnc(N4CCNCC4)c3)cn([C@H]3CC[C@H](O)CC3)c2n1
b: CCC[C@H](C)Nc1ncc2c(-c3ccc(CN4CCCN(C)CC4)cc3)cn([C@H]3CC[C@H](O)CC3)c2n1
Challenge: Returns: the argument ( a or b ) having the larger AUC(0-t). Write down the label of the entry you select.
Response given: b

---

measurement protocol: Half life in mouse at 3 mg/kg, iv
Assay type: ADME, organism-based
run conditions: in vivo
endpoint label: half-life (min)

CCC[C@H](C)Nc1ncc2c(-c3ccc(CN4C5CCC4CC5)cc3)cn([C@H]3CC[C@H](O)CC3)c2n1 : 108
CCC[C@H](C)Nc1ncc2c(-c3ccc(CN4CCOCC4)cc3)cn([C@H]3CC[C@H](O)CC3)c2n1 : 84
CCC[C@H](C)Nc1ncc2c(-c3ccc(CNCCN(CC)CC)cc3)cn([C@H]3CC[C@H](O)CC3)c2n1 : 219

P: CCC[C@H](C)Nc1ncc2c(-c3ccc(CN4CCCN(C)CC4)cc3)cn([C@H]3CC[C@H](O)CC3)c2n1
Q: CCC[C@H](C)Nc1ncc2c(-c3cnn(C4CCNCC4)c3)cn([C@H]3CC[C@H](O)CC3)c2n1
Challenge: Pick one: P or Q . Which one has the lower reported half-life? Write down the label of the entry you select.
Response given: Q
(Q: 126 min, P: 180 min)

1: CCC[C@H](C)Nc1ncc2c(-c3ccnc(N4CCNCC4)c3)cn([C@H]3CC[C@H](O)CC3)c2n1
2: CCC[C@H](C)Nc1ncc2c(-c3ccc(S(=O)(=O)N4CCN(C)CC4)cc3F)cn([C@H]3CC[C@H](O)CC3)c2n1
Challenge: Pick one: 1 or 2 . Which one has the lower reported half-life? Write down the label of the entry you select.
Response given: 2
(2: 39 min, 1: 156 min)

---

measurement protocol: AUClast in mouse at 3 mg/kg, iv
Assay type: ADME, organism-based
Set-up: dose 3 mg/kg, time 0 - last, route intravenous
run conditions: in vivo
endpoint label: AUC(0-t) (µM·h)

CCC[C@H](C)Nc1ncc2c(-c3ccc(CN4CCOCC4)cc3)cn([C@H]3CC[C@H](O)CC3)c2n1 : 2.2

P: CCC[C@H](C)Nc1ncc2c(-c3ccc(CNCCN(CC)CC)cc3)cn([C@H]3CC[C@H](O)CC3)c2n1
Q: CCC[C@H](C)Nc1ncc2c(-c3cnn(C4CCNCC4)c3)cn([C@H]3CC[C@H](O)CC3)c2n1
Challenge: Pick one: P or Q . Which one has the lower reported AUC(0-t)? Write down the label of the entry you select.
Response given: P
(P: 1.2 µM·h, Q: 2.8 µM·h)
